Taken from paper PMC4826192.

system: UniProtKB P43405
reportedProperty: IC50

Form entry - test system: UniProtKB P43405; read-out: IC50; compound: COCCNCc1ccc(-c2cc3nccc(Oc4ccc(NC(=O)C5(C(=O)Nc6ccc(F)cc6)CC5)cc4F)c3s2)nc1 [MGCD516, Sitravatinib]
> 10 µM

###

system: PDGFRα (Homo sapiens, UniProt P16234)
Sequence (P16234 24-1089): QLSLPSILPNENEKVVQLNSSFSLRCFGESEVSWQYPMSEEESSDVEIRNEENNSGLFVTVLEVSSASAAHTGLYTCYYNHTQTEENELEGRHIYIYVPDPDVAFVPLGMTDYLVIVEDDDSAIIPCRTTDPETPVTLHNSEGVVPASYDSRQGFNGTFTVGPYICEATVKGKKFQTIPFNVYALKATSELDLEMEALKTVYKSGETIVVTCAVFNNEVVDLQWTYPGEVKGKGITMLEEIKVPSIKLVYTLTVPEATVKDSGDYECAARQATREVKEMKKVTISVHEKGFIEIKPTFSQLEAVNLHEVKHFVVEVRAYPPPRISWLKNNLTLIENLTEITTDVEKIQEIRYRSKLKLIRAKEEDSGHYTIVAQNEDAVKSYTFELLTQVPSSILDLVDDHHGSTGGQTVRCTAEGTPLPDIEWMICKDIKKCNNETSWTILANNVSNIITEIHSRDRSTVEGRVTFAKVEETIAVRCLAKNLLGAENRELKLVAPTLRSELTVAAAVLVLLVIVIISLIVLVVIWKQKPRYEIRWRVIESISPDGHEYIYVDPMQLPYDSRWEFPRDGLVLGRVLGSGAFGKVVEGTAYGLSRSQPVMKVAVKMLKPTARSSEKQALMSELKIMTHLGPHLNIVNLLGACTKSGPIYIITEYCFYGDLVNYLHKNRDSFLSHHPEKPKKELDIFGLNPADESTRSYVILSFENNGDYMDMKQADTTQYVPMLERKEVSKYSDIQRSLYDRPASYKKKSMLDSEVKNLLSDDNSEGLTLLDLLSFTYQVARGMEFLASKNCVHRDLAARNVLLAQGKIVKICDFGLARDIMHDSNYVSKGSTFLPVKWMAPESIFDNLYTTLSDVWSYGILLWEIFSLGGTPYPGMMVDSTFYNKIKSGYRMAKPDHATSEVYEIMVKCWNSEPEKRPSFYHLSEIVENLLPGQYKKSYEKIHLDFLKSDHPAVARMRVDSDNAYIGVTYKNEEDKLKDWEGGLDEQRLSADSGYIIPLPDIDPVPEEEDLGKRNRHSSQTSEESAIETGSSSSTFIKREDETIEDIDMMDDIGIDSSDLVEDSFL
reportedProperty: IC50 (nM)
All answers are understood in nM, so give the number only.

Lab note: need IC50 for COCCNCc1ccc(-c2cc3nccc(Oc4ccc(NC(=O)C5(C(=O)Nc6ccc(F)cc6)CC5)cc4F)c3s2)nc1 [MGCD516, Sitravatinib] on PDGFRα (Homo sapiens, UniProt P16234), anyone have it?
30
